assay: PSAC antagonists in infected red cells, primary screen, cell-based, P. falciparum Indochina, OD700, 18 h (AID 1157); settings: P. falciparum Indochina infected erythrocytes, osmotic lysis OD700, 18 h; higher = more signal, called active from +8 up or from −8 down

- compound: "CN(C)C(=O)[C@]1(CCS(=O)(=O)c2ccccc2)N=C(c2ccc(OCCCO)cc2)O[C@@H]1c1ccccc1"
  z-score: 6.06
- compound: "COc1ccc([Si](C)(C)[C@H]2[C@H](CC(=O)N3CCC[C@H]3CO)O[C@@]3(C(=O)N(Cc4ccc(N5CCC5=O)cc4)c4ccccc43)[C@@H]2C)cc1"
  z-score: 0.746
- compound: "C=CC1c2cc(O)c(OC)cc2CCN1Cc1ccc([N+](=O)[O-])o1 (stereo not drawn)"
  z-score: 0.596
- compound: "C=C(CCCC)C(=O)CC[C@@H](OC(=O)c1cccnc1)c1ccc(OCCO)cc1"
  z-score: 0.774
- compound: "C=C[C@@H](C)[C@@H](OC(=O)Nc1ccc(SC)cc1)c1ccc(OCCO)cc1"
  z-score: 1.9
- compound: "C=CCC(OC(C)=O)[C@@H]1[C@@H](N(Cc2cc3ccccc3o2)C(=O)c2ccc(-c3ccccc3)cc2)c2cc(OCCCO)ccc2N1C(=O)Cc1ccc(OC)cc1 (stereo partly drawn)"
  z-score: 0.703
- compound: "CC(C)[Si]1(C(C)C)OCc2cc(-c3ccc(-c4ccc(Cl)c(Cl)c4)o3)nc(CCc3ccccc3)c21"
  z-score: -1.01
- compound: "C=CCC(OC(C)=O)[C@@H]1[C@@H](N(Cc2ccc(-c3cccc(C(F)(F)F)c3)o2)C(=O)c2ccc(C)cc2)c2cc(OCCCO)ccc2N1C(=O)Cc1ccc(OC)cc1 (stereo partly drawn)"
  z-score: 0.432
- compound: "CCCC=C(CCC)[C@@H](NS(=O)(=O)c1cccc2cccnc12)c1ccc(-c2ccccc2)cc1"
  z-score: 0.913
- compound: "COCCOC(=O)N1C(=O)[C@@]2(c3cc(C#CCC(C(=O)OC)C(=O)OC)ccc31)[C@H](c1ccc(OCCO)cc1)N1[C@H](c3ccccc3)[C@H](c3ccccc3)OC(=O)[C@H]1[C@@H]2C(=O)Nc1nc2ccccc2s1"
  z-score: 2.21
- compound: "COc1ccc(NC(=O)O[C@H]2[C@@H]3OC(=O)[C@H](Cc4cccc(Br)c4)C/C=C/C[C@@H](Cc4cccc(Br)c4)C(=O)O[C@H]3[C@@H](OC)O[C@@H]2CO)cc1"
  z-score: 0.434
- compound: "CC1(C)C(=O)C(c2ccccc2)=C2CN3C(=O)N(CCc4ccccc4)C(=O)C3(Cc3ccc(C(F)(F)F)cc3)C=C21 (stereo not drawn)"
  z-score: 0.668
- compound: "C=CCC(OC(C)=O)[C@@H]1[C@@H](N(Cc2ccc(-c3ccccc3)cc2)C(=O)Cc2ccc(F)cc2)c2cc(OCCCO)ccc2N1C(=O)Cc1ccc2ccccc2c1 (stereo partly drawn)"
  z-score: 0.381
- compound: "O=C1C2C=CC(C(O)c3cccc(O)c3)N(Nc3ccccc3)C2C(=O)N1c1ccccc1 (stereo not drawn)"
  z-score: 0.115
- compound: "COCCOC(=O)N1C(=O)[C@@]2(c3ccccc31)[C@H](c1ccccc1OCCO)N1[C@H](c3ccccc3)[C@H](c3ccccc3)OC(=O)[C@H]1[C@@H]2C(N)=O"
  z-score: 0.689
- compound: "CC(C)C(=C=CC[C@H](O)c1cccc(OCCO)c1)CCO"
  z-score: -1.95
- compound: "CC(C)N1CC=CC23O[C@@H]4/C=C\\CCCOC(=O)C4[C@H]2C(=O)N(CCCCCCO)[C@@H]3C1=O (stereo partly drawn)"
  z-score: 0.133
- compound: "COc1ccc([Si](C)(C)[C@H]2[C@H](CCO)O[C@@]3(C(=O)N(Cc4ccccc4)c4ccc(N5CCOC5=O)cc43)[C@@H]2C)cc1"
  z-score: 0.913
- compound: "[N-]=[N+]=NCc1ccccc1[C@H]1OC(c2ccc(OCCCO)cc2)=N[C@@]1(Cc1ccccc1)C(=O)NCCN1CCOCC1"
  z-score: 3.74
- compound: "COc1ccc([Si](C)(C)[C@@H]2[C@@H](CCn3cc([C@H](O)c4ccccc4)nn3)O[C@]3(C(=O)N(Cc4cccc(N5C(=O)c6cccc7cccc5c67)c4)c4ccccc43)[C@H]2C)cc1"
  z-score: 0.794
- compound: "CC(C)OC(=O)CC(=O)CC(O)c1ccc([N+](=O)[O-])cc1 (stereo not drawn)"
  z-score: 0.438
- compound: "COCCOC(=O)N1C(=O)[C@@]2(c3cc(C#CCNC(N)=O)ccc31)[C@H](c1ccc(O)cc1)N1[C@H](c3ccccc3)[C@H](c3ccccc3)OC(=O)[C@H]1[C@@H]2C(N)=O"
  z-score: 0.386
- compound: "COCCCNC(=O)[C@@]1(c2ccc([N+](=O)[O-])cc2)CC(=O)N(C(C)C)[C@@H]1c1ccc(CO)cc1"
  z-score: -0.0629
- compound: "CC(C)(C)OC(=O)CC[C@]1(C(=O)N2CCCCC2)COC(c2ccc(OCCCO)cc2)=N1"
  z-score: 0.663
- compound: "O=C1C[C@@](C(=O)NCC(F)(F)F)(c2ccc([N+](=O)[O-])cc2)[C@@H](c2ccc(CO)cc2)N1CC12CC3CC(CC(C3)C1)C2"
  z-score: -0.092
- compound: "CN1C(=O)C2C=CC(C(O)c3ccc(I)cc3)N(Nc3ccccc3)C2C1=O (stereo not drawn)"
  z-score: 1.12
- compound: "COc1cc(NN2C(C(O)c3cc(OC)c(OC)c(OC)c3)C=CC3C(=O)N(c4ccccc4)C(=O)C32)cc(OC)c1OC (stereo not drawn)"
  z-score: -1.19
- compound: "O=C1c2ccccc2[C@](Cc2ccccc2I)(C(=O)NC2CC2)[C@H](c2ccc(CO)cc2)N1Cc1ccccc1C(F)(F)F"
  z-score: -0.165

Origin of the recorded values: PubChem BioAssay
